- method-summary: Cytotoxicity activity against human HepG2 cells assessed by CellTiter-Glo luminescent cell viability assay.
- Format: toxicity, cell-based
- Set-up: assay stage confirmatory assay, source tissue liver
- condition-label: HepG2 cells, read-out: IC50 relative
Active and inactive are the calls of the source. The rule behind the calls is not given here.
Quick list: CC50 per entry.

Worked cases, CC50 given:
COc1ccc(Cl)cc1CNCC1CCN(C[C@H](C)O)CC1 ... 10.2 µM (active)
COc1ccc(NC(=O)C2=C(c3ccccc3)S(=O)(=O)CCO2)c(OC)c1 ... 9.7 µM (active)
Cc1cc(C(=O)Nc2cc(Cl)ccc2N2CCN(C)CC2)no1 ... 11.9 µM (active)
C#CC(=O)NCCNc1nc(C)nc(C)c1Br ... 0.8 µM (active)
O=C(Nc1ncc(-c2ccccc2)s1)c1ccccn1 ... 2.3 µM (active)
COc1cc(-c2cc(C)no2)ccc1S(=O)(=O)Nc1cc(OC)c(OC)c(OC)c1 ... 4.5 µM (active)
CN(C)S(=O)(=O)N1CCN(C(=O)c2cnn(-c3ccc(Cl)cc3)c2C(F)(F)F)CC1 ... 5.2 µM (active)
COc1cc(OC)cc(C(=O)NCc2nc3ncc(Br)cc3[nH]2)c1 ... 3.7 µM (active)
COc1cccc(OCCCN)c1-c1cc(Nc2cnc(C#N)cn2)n[nH]1 ... 0.3 µM (active)

Here's the next entry for you.
Which measured CC50 value corresponds to `CN(C)CCCn1cc(C2=C(c3c[nH]c4ccccc34)C(=O)NC2=O)c2ccccc21` ? 4.8 µM (active)

###

- method-summary: Cytotoxicity activity against human HepG2 cells assessed by CellTiter-Glo luminescent cell viability assay.
- Type: toxicity, cell-based
- Parameters: assay stage confirmatory assay, source tissue liver
- condition-label: HepG2 cells, read-out: IC50 relative
The source made the active and inactive calls. How the calls were made is not given here.
// classify into 1 = active, -1 = inactive

Some solved cases for reference:
C[C@]12CCC(=O)C=C1CC[C@@H]1[C@@H]2CC[C@]2(C)C(c3cccnc3)=CC[C@@H]12 ... -1
CN(Cc1ccccc1)C1=CC(=[N+]2CCCC2)CC(C)(C)C1 ... 1
CN1CCN(C)C(CNc2ncc(F)c(N(C)C)n2)C1 (stereo not drawn) ... -1
Cc1ccc(NC(=O)Nc2ccc3c(c2)N(S(C)(=O)=O)CC3)cc1F ... -1
COC(=O)C1=C(C)NC(C)=C(C(=O)OCC(C)C)C1c1ccccc1[N+](=O)[O-] (stereo not drawn) ... 1

Test call for this molecule, please: `CCn1cc(CC(=O)Nc2ccc(Oc3ccccc3)cn2)cn1` 1

###

- method-summary: Cytotoxicity activity against human HepG2 cells assessed by CellTiter-Glo luminescent cell viability assay.
- Assay type: toxicity, cell-based
- Set-up: assay stage confirmatory assay, source tissue liver
- condition-label: HepG2 cells, read-out: IC50 relative
The source made the active and inactive calls. How the calls were made is not given here.
Tick one outcome: T = active, F = inactive

These recorded examples may help you get a feel for the data.
CCCc1cc(NCCCN2CCOCC2)n2ncc(-c3ccccc3)c2n1 ... T
CC(=O)N1N=C(c2ccc(Br)cc2)C[C@H]1c1ccc(O)cc1 ... F
Nc1ccc(O)c2ncccc12 ... T
Cc1cccc(N2CCN(C(=O)C3CCCN(S(=O)(=O)c4ccc5c(c4)oc(=O)n5C)C3)CC2)c1C (stereo not given) ... T
CC1(C)Cc2c(sc(NC(=O)NCc3cccnc3)c2C(N)=O)CO1 ... F

Hey, what did the test say about `CCN1CCN(c2ncc(C(=O)Nc3ccc(Br)cc3)c(C)n2)CC1` ? F

// param item: `Oc1ccccc1N1CCN(C[C@H](O)COc2ccc(Oc3ccccc3)cc2)CC1` ; yields the recorded call F

Status in this test for `CS(=O)(=O)c1ncc(Cl)c(C(=O)Nc2ccc(Cl)cc2)n1` ? T

Test call for this molecule, please: `O=C(Nc1cccnn1)N1CCC(=Cc2cccc(Oc3ccc(C(F)(F)F)cn3)c2)CC1` T

Hi, sorry to bother you, what did the test record for `CCc1ccc(-c2cc3c(=O)n(CC(=O)NCCCN4CCN(CC)CC4)nc(C)n3n2)cc1` ? F

Could you kindly confirm the outcome this assay logged for `COc1cccc(C(=O)/N=c2\sc(C)c(C)n2Cc2ccc(C(=O)NCCN(C)C)o2)c1` ? T

Short answer needed: outcome of this test for `O=C(/C=C/c1ccc2ccccc2n1)c1ccncc1` ? T

Call for entry `COc1nc(OCc2cccc(-c3ccccc3)c2C)ccc1CNCCNC(C)=O` : T

Could you check what this test reported for `CCOc1ccc(OCC)c(NC(=O)c2ccc(N3CCN(C(C)C)CC3)cc2)c1` ? T

For `Cc1cc(N2CCN([C@@H](C)C(=O)Nc3ccc(C#N)cc3)CC2)nc(C(C)C)n1` , what call appears in the results of this test? T

For `Nc1nc(N)c2nc(CNc3ccc(C(=O)N[C@@H](CCC(=O)O)C(=O)O)cc3)cnc2n1` , what call appears in the results of this test? T

Per the records of this test, what outcome belongs to `COc1cc2c(cc1OC(C)C)[C@H](c1ccc(Cl)cc1)N(c1ccc(N(C)C[C@H]3CC[C@H](N4CCN(C)C(=O)C4)CC3)cc1)C(=O)C2` ? T

###

- method-summary: Cytotoxicity activity against human HepG2 cells assessed by CellTiter-Glo luminescent cell viability assay.
- Assay type: toxicity, cell-based
- Set-up: assay stage confirmatory assay, source tissue liver
- condition-label: HepG2 cells, read-out: IC50 relative
The source made the active and inactive calls. The rule behind the calls is not given here.
Entry note: the call must match one of active, inactive

Below are worked cases with known answers.
CNc1nc(N2CCCO[C@@H](CN)C2)nc2ccccc12 ... active
CC1(C)CC[C@H](CO)N(CCS(=O)(=O)c2ccc(C#N)cc2)C1 ... active
CNC(=O)c1cc(Oc2ccccc2N)ccn1 ... inactive
CCOc1ncccc1C(=O)Nc1nc2cc(C#N)ccc2n1CC ... active
COc1ccc(-c2noc(=O)n2Cc2ncc(C)c(OC)c2C)cc1OC ... active

Hi, do you know how `O=C(Cc1ccc(-n2cccn2)cc1)Nc1nccs1` came out in this test? active

Call for entry `CC(C)CN1CCN(Cc2nc(Cn3ccn4nc(-c5ccccc5)cc4c3=O)no2)CC1` : active

# outcome recorded in this test, key = `CCN(CC)CCNC(=O)C1CCN(c2nn3cc(-c4ccc(F)cc4)nc3s2)CC1` active

Entry `COc1cccc(NC(=O)CN(C)C(=O)Cn2ncc(Cl)c(Cl)c2=O)c1` : call = ? active

Called result for `O=C(Nc1cccnc1)c1ccc(Cn2nc(N3CCN(c4ccccc4)CC3)ccc2=O)o1` active

Could you please tell me the result logged for `O=C(Nc1ccc(I)cc1)c1ccc(CN2CCOCC2)cc1` in this assay? inactive

###

- method-summary: Cytotoxicity activity against human HepG2 cells assessed by CellTiter-Glo luminescent cell viability assay.
- Assay type: toxicity, cell-based
- Parameters: assay stage confirmatory assay, source tissue liver
- condition-label: HepG2 cells, read-out: IC50 relative
Active and inactive are the calls of the source. No rule for the calls is given here.
Reply using exactly one outcome from active, inactive

Solved cases (6 shown):
CCCCN(Cc1ccc(C(=O)NO)cc1)C(=O)Nc1ccccc1 [NEXTURASTAT A] ... active
COc1ccc(-n2ccc(CNc3ncnc(N)c3Cl)n2)cc1 ... active
CCN1C[C@H](CN(C)CC(=O)c2c(N)n(C3CC3)c(=O)[nH]c2=O)Oc2ccccc21 ... inactive
Cc1cccc2c3c(ccc12)C1=C(C(=O)C3=O)[C@@H](C)CO1 [DIHYDROTANSHINONE I] ... active
O=S(=O)(c1cccc2c(I)cccc12)N1CCCNCC1 ... active
CN(C)Cc1ccc(C(=O)Nc2nc3c(s2)CCCC3)cc1 ... active

Answer briefly: the call reported for `CC(C)Oc1cc(Nc2nc(N[C@@H](C)c3ccc(F)cn3)ncc2Cl)n[nH]1` in this assay. active

State the result this test recorded for `CC(C)(C)Cc1cc(NC(=O)[C@@H]2CCCN2C(=O)c2ccc3c(c2)OCO3)[nH]n1` . active

What did this assay record as the result for `O=S(=O)(Nc1cc(Sc2nc[nH]n2)c(O)c2ccccc12)c1ccc(Cl)cc1` ? active

Called result for `CN1CCN(c2cc3c(cc2S(=O)(=O)N2CCCCCC2)C(=O)Nc2ccccc2O3)CC1` active

###

- method-summary: Cytotoxicity activity against human HepG2 cells assessed by CellTiter-Glo luminescent cell viability assay.
- Type: toxicity, cell-based
- Design: assay stage confirmatory assay, source tissue liver
- condition-label: HepG2 cells, read-out: IC50 relative
Activity calls are given as the source filed them. The rule behind the calls is not given here.
Output constraint: value belongs to T (active), F (inactive)

Example entries begin here.
COc1ccc([C@@H](O)c2cc(-c3ncnc4cc(N5CCOCC5)ccc34)c(F)cc2Cl)nn1 ... T
CN(C)CCCNC(=O)c1ccc(-c2cc(O)c3ncccc3c2)cc1 ... T
CC(C)Cn1ncc2cc(C(=O)Nc3nc4ccccc4[nH]3)cnc21 ... F

What call does the record list for `O=C1Nc2cc(Cl)ccc2Oc2ccc(S(=O)(=O)N3CCCC3)cc21` ? T

Per the records of this test, what outcome belongs to COc1cc(C)c(Sc2cnc(NC(=O)c3ccc(CNC(C)C(C)(C)C)cc3)s2)cc1C(=O)N1CCN(C(C)=O)CC1 (stereo not given) ? T
